- Experimental System: MAT β subunit (regulatory β subunit, V1 form) (Homo sapiens, UniProt Q9NZL9)
- Construct: full length V1 from GST fusion in E. coli, TEV-cut, GSH linker retained at N-terminus; monomer/dimer equilibrium
- Sequence (Q9NZL9 whole entry, the tested form may be a part): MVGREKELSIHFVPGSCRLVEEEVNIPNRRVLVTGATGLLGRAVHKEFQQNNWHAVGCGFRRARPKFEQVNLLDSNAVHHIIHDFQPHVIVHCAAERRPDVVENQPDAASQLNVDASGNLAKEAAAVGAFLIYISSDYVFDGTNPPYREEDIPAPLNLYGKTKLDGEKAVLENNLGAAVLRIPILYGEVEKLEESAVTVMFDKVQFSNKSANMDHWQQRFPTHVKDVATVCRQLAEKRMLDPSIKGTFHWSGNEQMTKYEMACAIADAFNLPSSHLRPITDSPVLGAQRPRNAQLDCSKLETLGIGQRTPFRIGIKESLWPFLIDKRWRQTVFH
- Measurement Protocol: isothermal titration calorimetry
- Details: read-out: NADP^+→β
Observed Property: Kd (nM)
Please respond with the number in nM and leave the unit unwritten.

*Q* MAT β subunit (regulatory β subunit, V1 form) (Homo sapiens, UniProt Q9NZL9) / Kd / `NC(=O)c1ccc[n+]([C@@H]2O[C@H](COP(=O)(O)OP(=O)(O)OC[C@H]3O[C@@H](n4cnc5c(N)ncnc54)[C@H](OP(=O)(O)O)[C@@H]3O)[C@@H](O)[C@H]2O)c1` : value?
*A* 1700
